Recorded Emax for the following compounds
target-entity: F508delCFTR (Homo sapiens, UniProt P13569, DEL508-508)
Construct: expressed in transfected cells; host or cells: CFBE41o- human lung derived epithelial cells (CFBE41o-F508delCFTR-HRP), doxycycline-inducible
Sequence (P13569 with tags, fused parts or gaps DEL508-508): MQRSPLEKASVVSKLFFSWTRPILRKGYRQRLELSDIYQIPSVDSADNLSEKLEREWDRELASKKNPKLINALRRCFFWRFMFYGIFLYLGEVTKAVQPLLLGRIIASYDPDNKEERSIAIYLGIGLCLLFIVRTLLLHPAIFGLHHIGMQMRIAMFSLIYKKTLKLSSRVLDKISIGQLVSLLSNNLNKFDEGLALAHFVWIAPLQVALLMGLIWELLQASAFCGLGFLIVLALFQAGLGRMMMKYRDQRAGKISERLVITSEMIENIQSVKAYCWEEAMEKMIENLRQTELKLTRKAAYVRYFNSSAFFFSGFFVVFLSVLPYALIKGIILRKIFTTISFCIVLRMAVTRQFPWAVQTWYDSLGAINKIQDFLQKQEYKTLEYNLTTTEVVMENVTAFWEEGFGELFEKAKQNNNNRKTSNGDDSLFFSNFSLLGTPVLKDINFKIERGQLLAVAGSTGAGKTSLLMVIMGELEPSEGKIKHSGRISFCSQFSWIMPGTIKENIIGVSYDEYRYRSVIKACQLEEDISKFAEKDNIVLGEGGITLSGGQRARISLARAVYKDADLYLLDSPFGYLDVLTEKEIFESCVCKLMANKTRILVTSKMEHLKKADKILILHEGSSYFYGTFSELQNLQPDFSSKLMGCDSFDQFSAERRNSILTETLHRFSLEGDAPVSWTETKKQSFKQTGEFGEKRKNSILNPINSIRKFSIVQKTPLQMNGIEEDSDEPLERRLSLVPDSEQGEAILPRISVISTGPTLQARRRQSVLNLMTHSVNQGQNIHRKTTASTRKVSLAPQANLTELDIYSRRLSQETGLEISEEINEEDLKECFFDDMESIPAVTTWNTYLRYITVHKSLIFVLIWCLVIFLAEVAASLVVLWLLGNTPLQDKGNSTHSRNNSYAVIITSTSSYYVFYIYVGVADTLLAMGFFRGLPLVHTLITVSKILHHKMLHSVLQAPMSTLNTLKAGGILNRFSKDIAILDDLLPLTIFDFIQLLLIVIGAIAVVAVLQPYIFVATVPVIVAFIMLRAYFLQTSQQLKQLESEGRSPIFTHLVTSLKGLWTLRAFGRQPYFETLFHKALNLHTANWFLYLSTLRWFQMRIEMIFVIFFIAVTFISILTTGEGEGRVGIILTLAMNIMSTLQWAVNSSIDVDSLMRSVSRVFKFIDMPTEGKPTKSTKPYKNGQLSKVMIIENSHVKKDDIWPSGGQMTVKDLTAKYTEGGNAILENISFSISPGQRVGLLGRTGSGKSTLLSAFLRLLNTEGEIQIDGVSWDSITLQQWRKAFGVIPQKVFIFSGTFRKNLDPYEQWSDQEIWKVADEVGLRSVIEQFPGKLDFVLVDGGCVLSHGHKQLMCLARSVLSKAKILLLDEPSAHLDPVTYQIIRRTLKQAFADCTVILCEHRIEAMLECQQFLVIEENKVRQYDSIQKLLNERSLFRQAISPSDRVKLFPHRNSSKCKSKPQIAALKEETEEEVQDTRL
protocol-description: Cell Surface Expression-Horse Radish Peroxidase (CSE-HRP) Assay;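 on Maximum % activity (without co-corrector): % of on-plate positive control chromenyl benzoic acid corrector at 2 or 3 µM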
Format: cell-based
experimental-parameters: without co-corrector; maximum at any tested concentration; read-out: Maximum % activity (without co-corrector)

# count of solved cases: 3
{"columns": ["compound-structure-string", "target-entity", "assay-metric", "assay-value"],
 "data": [
  ["CO[C@H](C)COc1ccc(C)cc1C1(C(=O)NS(=O)(=O)c2cccc3nc(C)ccc23)CC1", "F508delCFTR (Homo sapiens, UniProt P13569, DEL508-508)", "Emax", "> 150%"],
  ["COc1cc(C2(C(=O)NS(=O)(=O)c3cccc4nc(C)ccc34)CC2)c(OCC(C)C)cn1", "F508delCFTR (Homo sapiens, UniProt P13569, DEL508-508)", "Emax", "> 150%"],
  ["COc1ccc(CO)cc1C1(C(=O)NS(=O)(=O)c2cccc3ncccc23)CC1", "F508delCFTR (Homo sapiens, UniProt P13569, DEL508-508)", "Emax", "< 50%"]
]}

Then this compound:
Query block: Would you mind telling me what Emax value was observed for "COc1cc(C2(C(=O)NS(=O)(=O)c3cccc4ncccc34)CC2)c(OCC(C)C)cn1" ?
Result block: > 150%

* * *

The entries below come with measured Emax values attached.
target-entity: F508delCFTR (Homo sapiens, UniProt P13569, DEL508-508)
Construct: expressed in transfected cells; host or cells: CFBE41o- human lung derived epithelial cells (CFBE41o-F508delCFTR-HRP), doxycycline-inducible
protocol-description: Cell Surface Expression-Horse Radish Peroxidase (CSE-HRP) Assay;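 on Maximum % activity (without co-corrector): % of on-plate positive control chromenyl benzoic acid corrector at 2 or 3 µM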
Assay type: cell-based
experimental-parameters: without co-corrector; maximum at any tested concentration; read-out: Maximum % activity (without co-corrector)
Method: A cellular assay for measuring the F508delCFTR cell surface expression after correction with test compounds either without or with a co-corrector (2 μM of 3-[(2R,4R)-4-({[1-(2,2-difluoro-1,3-benzodioxol-5-yl)cyclopropyl]carbonyl}amino)-7-methoxy-3,4-dihydro-2H-chromen-2-yl]benzoic acid), was developed in human lung derived epithelial cell line (CFBE4lo−) (Veit G et al, (2012) Mol Biol Cell. 23(21): 4188-4202). […] The raw counts from the experiment were analyzed using Accelrys® Assay Explorer v3.3. […]

Some entries whose results are on file:
{"columns": ["compound-structure-string", "target-entity", "Emax"],
 "data": [
  ["O=C(NS(=O)(=O)c1cccc2ncccc12)C1(c2cc(C3CCC3)cnc2N2CCCC2)CC1", "F508delCFTR (Homo sapiens, UniProt P13569, DEL508-508)", "> 150%"],
  ["CC(C)Oc1ccc(S(=O)(=O)NC(=O)C2(c3ccc(Cl)cc3Cl)CC2)cc1", "F508delCFTR (Homo sapiens, UniProt P13569, DEL508-508)", "< 50%"],
  ["COc1ccc(C#N)cc1C1(C(=O)NS(=O)(=O)c2cccc3ncccc23)CC1", "F508delCFTR (Homo sapiens, UniProt P13569, DEL508-508)", "50 to 150%"]
]}

Query block: Tell me reported Emax for "CCOc1ccc(C(C)(C)OC)cc1C1(C(=O)NS(=O)(=O)c2cccc3nc(C)ccc23)CC1" , tested with F508delCFTR (Homo sapiens, UniProt P13569, DEL508-508).
Result block: > 150%

Query block: Quick check: Emax on F508delCFTR (Homo sapiens, UniProt P13569, DEL508-508), item "O=C(NS(=O)(=O)c1cccc2ncccc12)C1(c2cc(OC(F)(F)F)ccc2Cl)CC1" ?
Result block: > 150%

Query block: Which Emax is reported with F508delCFTR (Homo sapiens, UniProt P13569, DEL508-508) for this entry: "CN(C)c1ncc(C(F)(F)F)cc1C1(C(=O)NS(=O)(=O)c2cccc3ncccc23)CC1" ?
Result block: > 150%

Query block: Observed Emax on F508delCFTR (Homo sapiens, UniProt P13569, DEL508-508) for "Cc1cnc(OCC(C)C)c(C2(C(=O)NS(=O)(=O)c3cccc4[nH]ncc34)CC2)c1" , please.
Result block: > 150%

Query block: For F508delCFTR (Homo sapiens, UniProt P13569, DEL508-508), provide Emax of "CCOc1ccc(C2(OC)CCC2)cc1C1(C(=O)NS(=O)(=O)c2cccc3ncccc23)CC1" please.
Result block: > 150%

Query block: Entry "O=C(NS(=O)(=O)c1cccc2ncccc12)C1(c2ccc(C(F)(F)F)nc2N2CCCC2)CC1" , system F508delCFTR (Homo sapiens, UniProt P13569, DEL508-508): what Emax was measured?
Result block: > 150%

Query block: Item: "CCc1ccc(O[C@@H]2CCOC2)c(C2(C(=O)NS(=O)(=O)c3cccc4ncccc34)CC2)c1" Test system: F508delCFTR (Homo sapiens, UniProt P13569, DEL508-508) Read-out: Emax Value: ?
Result block: > 150%

* * *

target-entity: F508delCFTR (Homo sapiens, UniProt P13569, DEL508-508)
Construct: expressed in transfected cells; host or cells: CFBE41o- human lung derived epithelial cells (CFBE41o-F508delCFTR-HRP), doxycycline-inducible
protocol-description: Cell Surface Expression-Horse Radish Peroxidase (CSE-HRP) Assay
Format: cell-based
experimental-parameters: with co-corrector; maximum at any tested concentration
assay-metric: Maximum % activity (with co-corrector)

Look over these answered cases.
{"columns": ["compound-structure-string", "Maximum % activity (with co-corrector)"],
 "data": [
  ["CO[C@@H](C)COc1ccc(C)cc1C1(C(=O)NS(=O)(=O)c2cccc3ncccc23)CC1", "+++ (≥350)"],
  ["COc1ccc(C23CC(C2)C3)cc1C1(C(=O)NS(=O)(=O)c2cccc3c2CCCN3)CC1", "+++ (≥350)"],
  ["COc1ccc(Br)cc1C1(C(=O)NS(=O)(=O)c2cccc3ncccc23)CC1", "+++ (≥350)"],
  ["O=C(NS(=O)(=O)c1ccccc1)C1(c2ccccc2)CC1", "++ (≥150 and <350)"],
  ["COc1ccc2c(S(=O)(=O)NC(=O)C3(c4cc(C5CC5)cnc4OCC(C)C)CC3)cccc2n1", "+++ (≥350)"],
  ["COc1ccc(Br)cc1C1(C(=O)NS(=O)(=O)c2cccc3ccccc23)CC1", "+++ (≥350)"],
  ["COC[C@@H](C)Oc1ccc(C)cc1C1(C(=O)NS(=O)(=O)c2cccc3ncccc23)CC1", "+++ (≥350)"],
  ["COc1cc(C2(C(=O)NS(=O)(=O)c3cccc4ncccc34)CC2)c(OC(C)C)cn1", "+++ (≥350)"],
  ["COc1ccc(S(=O)(=O)NC(=O)C2(c3ccc(Cl)cc3Cl)CC2)cc1OC", "+ (<150)"],
  ["CCOc1ccc(C)cc1C1(C(=O)NS(=O)(=O)c2cccc3[nH]c(C)cc23)CC1", "+++ (≥350)"]
]}

Query block: Which Maximum % activity (with co-corrector) value belongs to "COc1ncc(C(F)(F)F)cc1C1(C(=O)NS(=O)(=O)c2cccc3ncn(C)c23)CC1" ?
Result block: +++ (≥350)

Query block: Fill in the blank: the reported Maximum % activity (with co-corrector) of "O=C(NS(=O)(=O)c1cccc2ccccc12)C1(c2ccc(C(F)(F)F)nc2C2CCC2)CC1" is ____.
Result block: +++ (≥350)

Query block: # query: Maximum % activity (with co-corrector) of entry "CC(C)COc1ccc(N(C)C)c(C2(C(=O)NS(=O)(=O)c3cccc4ncccc34)CC2)n1"
Result block: +++ (≥350)

* * *

// values below are reported Emax
target-entity: F508delCFTR (Homo sapiens, UniProt P13569, DEL508-508)
Construct: expressed in transfected cells; host or cells: CFBE41o- human lung derived epithelial cells (CFBE41o-F508delCFTR-HRP), doxycycline-inducible
protocol-description: Cell Surface Expression-Horse Radish Peroxidase (CSE-HRP) Assay;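 on Maximum % activity (without co-corrector): % of on-plate positive control chromenyl benzoic acid corrector at 2 or 3 µM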
Format: cell-based
experimental-parameters: without co-corrector; maximum at any tested concentration; read-out: Maximum % activity (without co-corrector)

Completed entries (count: 3):
{"columns": ["compound", "Emax"],
 "data": [
  ["COc1ncc(C2CCC2)cc1C1(C(=O)NS(=O)(=O)c2cccc3ccn(C)c23)CC1", "> 150%"],
  ["CCc1ccc(OC)c(C2(C(=O)NS(=O)(=O)c3cccc4nc(C)ccc34)CC2)c1", "> 150%"],
  ["COc1ccc(C2CCC2)cc1C1(C(=O)NS(=O)(=O)c2cccc3nc(C)ccc23)CC1", "> 150%"]
]}

Query block: Can you look up the measured Emax of "COCC(C)(C)c1ccc(OC)c(C2(C(=O)NS(=O)(=O)c3cccc4nc(C)ccc34)CC2)c1" for me?
Result block: > 150%

Query block: Item "COc1cc(C2(C(=O)NS(=O)(=O)c3cccc4ncccc34)CC2)c(OC(C)C)cn1" has what recorded Emax?
Result block: > 150%

Query block: For the compound shown here, O=C(NS(=O)(=O)C1CCS(=O)(=O)C1)C1(c2ccc(Cl)cc2Cl)CC1 (centres unmarked) , give the reported Emax.
Result block: < 50%

Query block: What Emax value was documented for this compound, "CN(C(=O)C1(c2ccc(Cl)cc2Cl)CC1)S(=O)(=O)c1ccc(Cl)cc1" ?
Result block: < 50%

Query block: Form field: reported Emax of "COc1ccc(C2(OC)COC2)cc1C1(C(=O)NS(=O)(=O)c2cccc3ncccc23)CC1"
Result block: < 50%

Query block: Look at this compound and give its reported Emax. "COc1ncc(C(F)(F)F)cc1C1(C(=O)NS(=O)(=O)c2cccc3ccn(C)c23)CC1"
Result block: > 150%
